Assay: Urine time course after LSD administration, GC/MS
Assay type: in vivo
Settings: human, urine sample SW U5, 8 hrs after LSD administration
Metric: concentration at 8 h (ng/mL)
Answer with a number only, understood to be in ng/mL.

**Query** Tell me its concentration at 8 h given CCN(CC)C(=O)[C@@H]1C=C2c3cccc4[nH]cc(c34)C[C@H]2N(C)C1 [LSD, lysergic acid diethylamide] as the entry.
**Result** 0.71

----------
Test: Urine time course after LSD administration, GC/MS
Format: in vivo
Settings: human, urine sample SW U6, 10 hrs after LSD administration
Metric: concentration at 10 h (ng/mL)
API: value field is a number in ng/mL; no unit string.

**Query** Give the reported concentration at 10 h for this molecule. CCN(CC)C(=O)[C@@H]1C=C2c3cccc4[nH]cc(c34)C[C@H]2N(C)C1 [LSD, lysergic acid diethylamide]
**Result** 0.76

----------
System: monoclonal antibody 19A7
Format: binding, mice
Method: Cross-reactivity was tested by spiking various potential cross-reactants into human urine containing a preservative.
Consider the following molecules and their measured Concentration Observed readings.
Reply with just the number (in ng/mL).

Below, 3 molecules whose answers are already recorded.
**Query** // fetch Concentration Observed for CN/C(=N/CCSCc1nc[nH]c1C)NC#N [Cimetidine] ; system: monoclonal antibody 19A7
**Result** 0.0

**Query** Print monoclonal antibody 19A7 Concentration Observed for CN1C(=O)CN=C(c2ccccc2)c2cc(Cl)ccc21 [Diazepam] .
**Result** 0.0

**Query** Under monoclonal antibody 19A7: report Concentration Observed of CN1CC[C@]23c4c5ccc(O)c4O[C@H]2[C@@H](O)C=C[C@H]3[C@H]1C5 [Morphine] .
**Result** 0.0

Let us move to another entry and its Concentration Observed.
**Query** Write Concentration Observed of CC1(C)S[C@@H]2[C@H](NC(=O)[C@H](N)c3ccc(O)cc3)C(=O)N2[C@H]1C(=O)O [Amoxicillin] ; system used: monoclonal antibody 19A7
**Result** 0.0

----------
Assay: Urine time course after LSD administration, GC/MS
Assay type: in vivo
Conditions: human, urine sample JS U4, 6 hrs after LSD administration
Metric: concentration at 6 h (ng/mL)
The figure you give is taken to be in ng/mL; do not add the unit.

**Query** Using the record for CCN(CC)C(=O)[C@@H]1C=C2c3cccc4[nH]cc(c34)C[C@H]2N(C)C1 [LSD, lysergic acid diethylamide] , state its measured concentration at 6 h.
**Result** 0.37

----------
Experiment: Urine time course after LSD administration, GC/MS
Format: in vivo
Conditions: human, urine sample JS U3, 4 hrs after LSD administration
Metric: concentration at 4 h (ng/mL)
# output: bare number, implied unit ng/mL

**Query** Item CCN(CC)C(=O)[C@@H]1C=C2c3cccc4[nH]cc(c34)C[C@H]2N(C)C1 [LSD, lysergic acid diethylamide] : provide concentration at 4 h
**Result** 0.39

----------
Test: Urine time course after LSD administration, GC/MS
Format: in vivo
Conditions: human, urine sample JS U9, 36 hrs after LSD administration
Metric: concentration at 36 h (ng/mL)
Provide only the numeric value, understood in ng/mL.

**Query** Given the compound CCN(CC)C(=O)[C@@H]1C=C2c3cccc4[nH]cc(c34)C[C@H]2N(C)C1 [LSD, lysergic acid diethylamide] , write its reported concentration at 36 h.
**Result** 0.03
